Listing of recorded EC50 by entry.
# System: primary human mesenchymal stem cells (hMSCs)
# measurementNotes: Chondrogenesis screening using primary human mesenchymal stem cells
# Type: cell-based
# studyConditions: Homo sapiens, Mesenchymal stem cells, hMSC chondrogenesis; concentration required to induce 50% levels of chondrogenesis with TGF-β3 as positive control; read-out: Conc (nM) of 50% TGF-β3 activity
// note: answer is a bare numeric in nM

| inputSmiles | testValue |
| --- | --- |
| FC1(F)CCN(Cc2cncc(-c3cc4c(-c5nc6c(N7CCCCC7)cncc6[nH]5)n[nH]c4cn3)c2)C1 | 10 |
| O=C(Nc1cncc(-c2cc3c(-c4cc5cnccc5[nH]4)n[nH]c3cn2)c1)C1CCCCC1 | 30 |
| Cc1ccncc1-c1ccc2[nH]nc(-c3nc4c(-c5ccsc5)nccc4[nH]3)c2c1 | 10 |

--- query ---
## Task Return value of EC50 for input "Cc1ccc(-c2cncc3[nH]c(-c4n[nH]c5ccc(-c6cncc(N)c6)nc45)nc23)s1" , no commentary.
## Result 30

---

Listing of recorded EC50 by entry.
# Test system: primary human mesenchymal stem cells (hMSCs)
# measurementNotes: Chondrogenesis screening using primary human mesenchymal stem cells
# Type: cell-based
# studyConditions: Homo sapiens, Mesenchymal stem cells, hMSC chondrogenesis; concentration required to induce 50% levels of chondrogenesis with TGF-β3 as positive control; read-out: Conc (nM) of 50% TGF-β3 activity
# Procedure: Representative compounds were screened using primary human mesenchymal stem cells (hMSCs) to determine their ability to induce chondrogenesis (process by which cartilage is developed). […] Area of nodules in each well was normalized to the average of 3 DMSO treated wells on the same plate using Excel (Microsoft Inc.). The normalized averages (fold change over DMSO) of 2 or 3 replicate wells for each compound concentration were calculated. […]
// note: answer is a bare numeric in nM

# example entries with known answers
| inputSmiles | displayUnit | testValue |
| --- | --- | --- |
| CN(C)Cc1cncc(-c2cnc3[nH]nc(-c4nc5c(-c6cccs6)cncc5[nH]4)c3c2)c1 | nM | 30 |
| CCCC(=O)Nc1cncc(-c2cnc3[nH]nc(-c4cc5c(-c6ccncc6)ccnc5[nH]4)c3c2)c1 | nM | 30 |
| CC(C)C(=O)Nc1cncc(-c2cc3c(-c4cc5cnccc5[nH]4)n[nH]c3cn2)c1 | nM | 30 |

## Task Return value of EC50 for input "c1csc(-c2ccnc3[nH]c(-c4n[nH]c5ccc(-c6cncc(OC7CCNCC7)c6)nc45)cc23)c1" , no commentary.
## Result 300

---

Listing of recorded pEC50 by entry.
# assayTarget: CLK2 kinase (Homo sapiens, UniProt P49760)
# Sequence (P49760 whole entry): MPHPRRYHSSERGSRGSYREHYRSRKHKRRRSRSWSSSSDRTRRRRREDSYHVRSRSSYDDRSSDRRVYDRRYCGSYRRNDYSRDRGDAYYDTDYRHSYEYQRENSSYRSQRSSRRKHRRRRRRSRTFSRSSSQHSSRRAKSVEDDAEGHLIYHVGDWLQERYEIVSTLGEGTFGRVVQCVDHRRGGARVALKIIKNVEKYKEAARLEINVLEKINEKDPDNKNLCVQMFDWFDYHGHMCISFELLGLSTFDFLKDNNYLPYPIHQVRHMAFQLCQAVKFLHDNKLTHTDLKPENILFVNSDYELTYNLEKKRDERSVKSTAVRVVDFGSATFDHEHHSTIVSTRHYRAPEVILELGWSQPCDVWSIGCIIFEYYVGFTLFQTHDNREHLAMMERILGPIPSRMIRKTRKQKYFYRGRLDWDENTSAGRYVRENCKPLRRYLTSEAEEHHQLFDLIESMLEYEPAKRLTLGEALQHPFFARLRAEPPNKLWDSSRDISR
# measurementNotes: CLK2 kinase activity assay (Z-lyte FRET);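 note: FRET read-out as coumarin to fluorescein emission ratio, unphosphorylated peptide as 0% and phosphorylated peptide as 100% controls, duplicate reactions, non-linear regression fit of dose-response curves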
# studyConditions: Z-lyte Ser/Thr 6 peptide, 60 μM ATP, 1 h at room temperature
Please express pEC50 as -log10 of the molar concentration.

# example entries with known answers
| inputSmiles | testValue |
| --- | --- |
| CC(C)C(=O)Nc1cncc(-c2ccc3[nH]nc(-c4nc5c(-c6ccccc6F)cncc5[nH]4)c3c2)c1 | 8.40 |
| CC(C)(C)C(=O)Nc1cncc(-c2ccc3[nH]nc(-c4nc5c(-c6ccc(Cl)s6)cncc5[nH]4)c3n2)c1 | 8.10 |

## Task Return value of pEC50 for input "CCC(=O)Nc1cncc(-c2cc3c(-c4cc5c(N6CCN(C)CC6)nccc5[nH]4)n[nH]c3cn2)c1" , no commentary.
## Result 8.52

## Task Return value of pEC50 for input "Cc1n[nH]c2ccc(-c3cncc(OC[C@H](N)Cc4ccccc4)n3)cc12" , no commentary.
## Result 8.70

## Task Return value of pEC50 for input "Fc1cccc(-c2cncc3[nH]c(-c4n[nH]c5cnc(-c6cncc(OC7CCNCC7)c6)cc45)nc23)c1" , no commentary.
## Result 9.00

## Task Return value of pEC50 for input "O=C(Nc1ccc(N2CCNCC2)nc1)c1n[nH]cc1/C=C/c1cccnc1" , no commentary.
## Result 8.30

## Task Return value of pEC50 for input "O=C1CCc2cccc(c2)-c2cncc(c2)NC(=O)c2n[nH]c3ccc(cc23)-c2cncc(c2)CN1" , no commentary.
## Result 8.30

---

# assayTarget: UniProt P49761
# measurementNotes: CLK3 kinase activity assay (Z-lyte FRET)
# Assay type: biochemical
# studyConditions: Z-lyte Ser/Thr 18 peptide, 156 μM ATP, 1 h at room temperature
Listing of recorded log10 of EC50 by entry.
Quick note: numbers are log10 of EC50, with nM as the unit.

# example entries with known answers
| compound | readout | testValue |
| --- | --- | --- |
| O=C(Nc1cncc(-c2cnc3[nH]nc(-c4cc5cccnc5[nH]4)c3c2)c1)C1CCCCC1 [compound 432] | log10 of EC50 | 3.47 |
| Cc1n[nH]c2ccc(-c3cncc(OCCN)c3)cc12 [compound 34] | log10 of EC50 | 3.72 |
| CN(C)Cc1cncc(-c2ccc3[nH]nc(-c4nc5c(-c6cccc(F)c6)nccc5[nH]4)c3n2)c1 [compound 138] | log10 of EC50 | 2.29 |
| CN1CCN(c2cncc3[nH]c(-c4n[nH]c5ccc(-c6cccnc6)cc45)nc23)CC1 [compound 213] | log10 of EC50 | 1.71 |
| Cc1n[nH]c2cc(F)c(-c3cncc(CN4CCCCC4)n3)cc12 [compound 40] | log10 of EC50 | 3.38 |

## Task Return value of log10 of EC50 for input O=C(Nc1cc2cc(-c3cncc(NC4CCNCC4)n3)ccc2cn1)C1CC(F)(F)C1 [compound 600] , no commentary.
## Result 1.89

## Task Return value of log10 of EC50 for input CS(=O)(=O)c1ccc(NC(=O)c2n[nH]c3ccc(-c4cncc(CN5CCCCC5)c4)cc23)cn1 [compound 89] , no commentary.
## Result 1.15

## Task Return value of log10 of EC50 for input Cc1ncc(-c2ccc3cnc(NC(=O)C4(F)CC4)cc3c2)n1C [compound 587] , no commentary.
## Result 2.83

---

# assayTarget: CLK2 kinase (Homo sapiens)
# measurementNotes: CLK2 kinase activity assay (Z-lyte FRET)
# studyConditions: Z-lyte Ser/Thr 6 peptide, 60 μM ATP, 1 h at room temperature
readout: pEC50
Please express pEC50 as -log10 of the molar concentration.

# example entries with known answers
| inputSmiles | pEC50 |
| --- | --- |
| Cc1ccncc1-c1cc2c(-c3nc4c(-c5cc(F)cc(CNS(C)(=O)=O)c5)cccc4[nH]3)n[nH]c2cn1 | 7.96 |
| CCNCc1cncc(-c2ccc3[nH]nc(-c4cc5c(-c6cccnc6)ccnc5[nH]4)c3c2)c1 | 7.89 |
| Nc1cncc(-c2cnc3[nH]nc(-c4cc5c(-c6ccccc6F)nccc5[nH]4)c3c2)c1 | 8.15 |

## Task Return value of pEC50 for input "CN1CCC(n2cc(C(=O)Nc3ncc4ccc(-c5cncc6[nH]ccc56)cc4n3)cn2)CC1" , no commentary.
## Result 8.22

## Task Return value of pEC50 for input "CC(C)n1cc(C(=O)Nc2cc3cc(-c4cncn4C(C)C)ccc3cn2)cn1" , no commentary.
## Result 8.15

## Task Return value of pEC50 for input "Nc1cncc(-c2cc3c(-c4cc5c(-c6ccccc6F)cncc5[nH]4)n[nH]c3cn2)c1" , no commentary.
## Result 8.22

## Task Return value of pEC50 for input "CCNCc1cncc(-c2cnc3[nH]nc(-c4cc5c(-c6ccccc6F)cncc5[nH]4)c3c2)c1" , no commentary.
## Result 8.70

---

# assayTarget: CLK3 kinase (Homo sapiens)
# Sequence (P49761 whole entry): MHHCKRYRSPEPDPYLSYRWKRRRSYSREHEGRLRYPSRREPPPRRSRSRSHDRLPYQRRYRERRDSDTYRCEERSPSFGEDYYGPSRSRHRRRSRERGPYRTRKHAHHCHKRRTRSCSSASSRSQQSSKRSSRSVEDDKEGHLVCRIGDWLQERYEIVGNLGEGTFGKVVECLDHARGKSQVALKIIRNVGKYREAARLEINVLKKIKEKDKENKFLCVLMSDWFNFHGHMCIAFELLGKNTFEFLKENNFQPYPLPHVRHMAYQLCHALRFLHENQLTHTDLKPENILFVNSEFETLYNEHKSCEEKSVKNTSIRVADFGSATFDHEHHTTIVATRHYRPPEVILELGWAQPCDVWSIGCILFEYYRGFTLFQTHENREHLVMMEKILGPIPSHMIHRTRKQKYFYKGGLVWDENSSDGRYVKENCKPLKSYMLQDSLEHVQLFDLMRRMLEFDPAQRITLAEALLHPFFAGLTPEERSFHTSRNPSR
# measurementNotes: CLK3 kinase activity assay (Z-lyte FRET);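 note: kinase activity read as coumarin/fluorescein emission ratio by FRET, unphosphorylated peptide as 0% and phosphorylated peptide as 100% control, values from non-linear regression of dose-response curves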
# studyConditions: Z-lyte Ser/Thr 18 peptide, 156 μM ATP, 1 h at room temperature
readout: EC50 (nM)
// note: answer is a bare numeric in nM

| compound | readout | testValue |
| --- | --- | --- |
| Cc1[nH]nc(C(=O)Nc2ccc(CN3CCCC3)cc2)c1/C=C/c1cccnc1 [compound 18] | EC50 | 3990 |

## Task Return value of EC50 for input c1cnc2[nH]c(-c3n[nH]c4ccc(-c5cncc(CN6CCCCC6)c5)cc34)cc2c1 [compound 450] , no commentary.
## Result 85

## Task Return value of EC50 for input NC1CN(c2cncc(-c3ccc4[nH]nc(-c5nc6ccncc6[nH]5)c4c3)c2)C1 [compound 205] , no commentary.
## Result 182

## Task Return value of EC50 for input O=C(Nc1ccc(CN2CCCC2)cc1)c1n[nH]c2ccc(-c3cccnc3F)cc12 [compound 65] , no commentary.
## Result 47

---

Listing of recorded EC50 by entry.
# System: primary human mesenchymal stem cells (hMSCs)
# measurementNotes: Chondrogenesis screening using primary human mesenchymal stem cells
# Type: cell-based
# studyConditions: Homo sapiens, Mesenchymal stem cells, hMSC chondrogenesis; concentration required to induce 50% levels of chondrogenesis with TGF-β3 as positive control; read-out: Conc (nM) of 50% TGF-β3 activity
# Method: Representative compounds were screened using primary human mesenchymal stem cells (hMSCs) to determine their ability to induce chondrogenesis (process by which cartilage is developed). […] Area of nodules in each well was normalized to the average of 3 DMSO treated wells on the same plate using Excel (Microsoft Inc.). The normalized averages (fold change over DMSO) of 2 or 3 replicate wells for each compound concentration were calculated. […]
// note: answer is a bare numeric in nM

# example entries with known answers
| inputSmiles | EC50 [nM] |
| --- | --- |
| CC(C)Nc1cncc(-c2cc3c(-c4cc5c(-c6cccnc6)ccnc5[nH]4)n[nH]c3cn2)c1 | 10 |
| Cc1ccc(-c2cccc3[nH]c(-c4n[nH]c5ccc(-c6cncc(N)c6)nc45)nc23)s1 | 10 |
| O=C(Nc1cncc(-c2cc3c(-c4cc5cnccc5[nH]4)n[nH]c3cn2)c1)C1CC1 | 30 |
| CN(C)c1cncc(-c2ccc3[nH]nc(-c4nc5c(-c6cccc(F)c6)cncc5[nH]4)c3n2)c1 | 10 |
| CC(C)C(=O)Nc1cncc(-c2cc3c(-c4cc5c(-c6cc(F)cc(CNS(C)(=O)=O)c6)nccc5[nH]4)n[nH]c3cn2)c1 | 30 |

## Task Return value of EC50 for input "CN(C)Cc1cncc(-c2cnc3[nH]nc(-c4nc5c(-c6cccc(F)c6)cncc5[nH]4)c3c2)c1" , no commentary.
## Result 30

## Task Return value of EC50 for input "Fc1cccc(-c2cccc3[nH]c(-c4n[nH]cc4/C=C/c4cncc(CN5CCCC5)c4)nc23)c1" , no commentary.
## Result 2700
